Exercise: state measured TGI for each of the compounds provided.
System: SW-620 colon
Experiment: NCI tumour cell line growth inhibition, 48 h

Provide only the value of recorded TGI for C[C@]12CC[C@H](O)CC1=CC[C@@H]1C2CC[C@]2(C)c3n[nH]nc3CC12 (stereo partly specified) > 100 µM

Provide only the value of recorded TGI for O=C(Nc1ccccn1)/C(=C\C(=O)c1ccc(Cl)cc1)Nc1ccccc1 > 10 µM

Provide only the value of recorded TGI for COc1ccc2c(c1)oc1c(C)c3c(c(C)c12)C(=O)N(N)C3=O > 100 µM

Provide only the value of recorded TGI for COC(=O)C1Cc2c([nH]c3ccccc23)C(C2CCCCC2)N1 (stereo unspecified) > 100 µM

Provide only the value of recorded TGI for O=c1[nH][nH]c(=O)n1Cc1cccc(Cn2c(=O)[nH][nH]c2=O)c1 > 100 µM

Provide only the value of recorded TGI for COC(=O)[C@]12CC[C@H]3CN(C(=O)OCc4ccccc4)[C@H]([C@H]31)[C@H](c1ccco1)N2 > 100 µM

* * *

Test system: DU-145 prostate
Experiment: NCI tumour cell line growth inhibition, 48 h; in the data active = GI50 below about 0.43 µM; inactive = the rest
Would you mind answering with one of these outcomes? 1 (active), 0 (inactive)

Status in this test for O=C1NC(=O)/C(=C/c2c(Cl)nc3sccn23)S1 ? 0

Status in this test for COc1cccc2c1C(=O)c1c(O)c3c(c(O)c1C2=O)CC(O)(/C(C)=N/NC(=O)CCCCC(=O)N/N=C(\C)C1(O)Cc2c(O)c4c(c(O)c2C(OC2CC(N)C(O)C(C)O2)C1)C(=O)c1c(OC)cccc1C4=O)CC3OC1CC(N)C(O)C(C)O1 (stereo not drawn) ? 1

Status in this test for CC1OC(OC2C(O)C(OCCc3ccc(O)c(O)c3)OC(CO)C2OC(=O)/C=C/c2ccc(O)c(O)c2)C(O)C(O)C1OC1OCC(O)(CO)C1O (stereo not drawn) ? 0

Status in this test for CN(C)c1ccc(Nc2ncnc3ccccc23)cc1 ? 0

Status in this test for Cc1ccc(/C(=N/NS(=O)(=O)c2ccc([N+](=O)[O-])cc2)Sc2cc(Cl)c(C)cc2S(N)(=O)=O)cc1 ? 0

Status in this test for COc1ccc2c(c1)oc1c(C)c3c(c(C)c12)C(=O)N(N)C3=O ? 0

Status in this test for O=C(Nc1cccc(-n2ccc3c(NC(=O)c4ccccc4)nccc32)c1)Nc1ccc(Cl)c(C(F)(F)F)c1 ? 1

Status in this test for Cn1c(=O)n(CCCO)c(=O)c2c1nc(Oc1cccc(OC(F)(F)F)c1)n2Cc1ccc(Cl)cc1 ? 0

* * *

System: MCF7 breast
Experiment: NCI tumour cell line growth inhibition, 48 h
Exercise: state measured TGI for each of the molecules provided.

Determine reported TGI for O=C(Nc1c(Cl)cccc1Cl)c1c(Cl)c(Cl)c(Cl)c(Cl)c1-c1nc2ccccc2[nH]1 ; test system: MCF7 breast. > 100 µM

Determine reported TGI for O=C(CN=C(CN(c1ccccc1)c1ccccc1)Oc1c(Cl)cc(Cl)cc1Cl)N1c2ccccc2Sc2ccccc21 ; test system: MCF7 breast. > 100 µM

Determine reported TGI for O=C1c2ccccc2-c2nc(-c3ccncc3)cc3c2c1nc1ccccc13 ; test system: MCF7 breast. > 100 µM

Determine reported TGI for COc1ccc(/C=C/c2nsc(/C=C/c3ccc(OC)cc3)n2)cc1 ; test system: MCF7 breast. > 100 µM

Determine reported TGI for O=C(Nc1ccccn1)/C(=C\C(=O)c1ccc(Cl)cc1)Nc1ccccc1 ; test system: MCF7 breast. > 10 µM

Determine reported TGI for CO[C@@H]1C[C@H]2[C@@H]3CC[C@H]([C@H](C)CO)[C@@]3(C)CC[C@@H]2[C@@]2(C)CC[C@H]3C[C@]312 ; test system: MCF7 breast. 47.8 µM

Determine reported TGI for CC1(C)CCC2(CC1)N[C@@H](C(=O)N[C@@H]1CC[C@@H](C(N)=O)OC1)[C@H](c1ccnc(Cl)c1F)[C@]21C(=O)Nc2cc(Cl)ccc21 ; test system: MCF7 breast. 2.28 µM

Determine reported TGI for Cc1cc(C#N)c[n+](C)c1 ; test system: MCF7 breast. > 100 µM

Determine reported TGI for c1cc(-c2ccc(-c3ccc(C4=NCCCN4)cc3)o2)ccc1C1=NCCCN1 ; test system: MCF7 breast. > 100 µM

Determine reported TGI for COc1ccc(-c2nnc(COc3ccc(Cl)cc3Cl)o2)cc1OC ; test system: MCF7 breast. > 100 µM

* * *

Exercise: state measured TGI for each of the molecules provided.
System: HOP-18 NSCLC
Assay: NCI tumour cell line growth inhibition, 48 h

Provide only the value of recorded TGI for O=C1C=CC(=O)c2c(O)ccc(O)c21 2.17 µM

Provide only the value of recorded TGI for COc1cc(CN[C@H]2CCc3cc(OC)c(OC)c(OC)c3-c3ccc(SC)c(=O)cc32)cc(OC)c1 > 100 µM

Provide only the value of recorded TGI for CCOC(=O)c1csc(CCCCCCc2nc(C(=O)OCC)cs2)n1 > 100 µM

Provide only the value of recorded TGI for COC(=O)C1Cc2c([nH]c3ccccc23)C(C2CCCCC2)N1 (configuration not stated) > 100 µM

Provide only the value of recorded TGI for CCCCC1CC(c2ccc(Cl)cc2)=NO1 (configuration not stated) > 100 µM

Provide only the value of recorded TGI for Sc1ccccc1S > 100 µM

Provide only the value of recorded TGI for O=[N+]([O-])c1ccc2[nH]c3c(-c4ccccc4)nccc3c2c1 61.9 µM

* * *

Tested on: HL-60(TB) leukemia
Experiment: NCI tumour cell line growth inhibition, 48 h; in the data active means GI50 below about 0.43 µM; inactive means the rest
Would you mind answering with one of these outcomes? 1 = active, -1 = inactive

Status in this test for CC1(C)CCC2(CC1)N[C@@H](C(=O)N[C@@H]1CC[C@@H](C(N)=O)OC1)[C@H](c1ccnc(Cl)c1F)[C@]21C(=O)Nc2cc(Cl)ccc21 ? -1

Status in this test for O=c1c2c([nH]c3ccccc13)CCCC2 ? -1

Status in this test for COc1cc(CN[C@H]2CCc3cc(OC)c(OC)c(OC)c3-c3ccc(SC)c(=O)cc32)cc(OC)c1 ? 1

Status in this test for O=C1NC(=O)/C(=C/c2c(Cl)nc3sccn23)S1 ? -1

* * *

System: SN12C renal
Assay: NCI tumour cell line growth inhibition, 48 h
measured.metric: TGI

Provide only the value of recorded TGI for O=[N+]([O-])c1ccc2[nH]c3c(-c4ccccc4)nccc3c2c1 > 84.6 µM

Provide only the value of recorded TGI for COc1nc(NC2OC(COC(C)=O)C(OC(C)=O)C(OC(C)=O)C2OC(C)=O)c2c(OC(C)=O)c(C)c(=O)oc2n1 (stereo not given) > 100 µM

Provide only the value of recorded TGI for Cc1nc2c(n1CC(C)C)C(=O)c1ccccc1C2=O > 100 µM

Provide only the value of recorded TGI for O=C1C=CC(=O)c2c1ccc1c3ccccc3n(CCCCCCCCn3c4ccccc4c4ccc5c(c43)C(=O)C=CC5=O)c21 > 100 µM

Provide only the value of recorded TGI for CCOC(=O)C1(Cc2ccc3c(c2)CCC3)Cc2cc3c(cc2C1=O)CCC3 (stereo not given) > 100 µM

* * *

System: CAKI-1 renal
Assay: NCI tumour cell line growth inhibition, 48 h
measured.metric: TGI

Provide only the value of recorded TGI for COc1ccc(-c2csc(-n3c(-c4ccccc4)nc4c(Br)cc(Br)cc4c3=O)n2)cc1 > 100 µM

Provide only the value of recorded TGI for O=C1c2ccccc2-c2nc(-c3ccncc3)cc3c2c1nc1ccccc13 > 100 µM

Provide only the value of recorded TGI for Cc1c([C@H](C(Cl)Cl)[C@H](O)[C@H]2C[C@H](C)C(=O)O2)ccc2c1C(=O)[C@H]1[C@H]2C[C@@H](Br)[C@@]23O[C@@H](CO[C@H]2O)CC13C (some centres not stated) > 29.5 µM

Provide only the value of recorded TGI for O=C(NO)C(=O)Nc1cc(Cl)ccc1Cl > 100 µM

Provide only the value of recorded TGI for CC(C)=CCCC(C)[C@H]1CC(O)C2(C)C3=CCC4C(C)(C)[C@@H](O)CC[C@]4(C)C3=CC[C@]12C (some centres not stated) 24.4 µM

Provide only the value of recorded TGI for CCC(O)CC1OC2(CCC1C)CC1OC(=O)/C=C\C(C)(O)C(O)C(C)C(O)C(OC3CC(OC)C(O)C(C)O3)C(O)C(C)(O)CCC/C=C/C3CC(C)COC3(O)CC(O2)C1C (configuration not stated) 33.3 µM

Provide only the value of recorded TGI for CCOP(=S)(OCC)Oc1ccc2c(c1)OC(=O)C1(Cl)C2(C)C2(Cl)C(=O)Oc3cc(OP(=S)(OCC)OCC)ccc3C12C (configuration not stated) 41.8 µM

Provide only the value of recorded TGI for O=C(Nc1ccc(-n2cc(-c3ccncc3)c(-c3ccc(O)c(Cl)c3)n2)cc1)c1cc(C(F)(F)F)cc(C(F)(F)F)c1 > 25 µM

Provide only the value of recorded TGI for C=CCc1cc(OC)c2c(c1)C(OC(C)=O)CC(c1ccc(OC)c(OC)c1)O2 (configuration not stated) > 100 µM

Provide only the value of recorded TGI for Nc1nc2[nH]c(=O)cnc2c(=O)[nH]1 > 125 µM

Provide only the value of recorded TGI for O=C(/C=C/c1cc2ccccc2[nH]c1=O)c1ccc(Cl)cc1 > 32.1 µM

Provide only the value of recorded TGI for C[C@]12CC[C@H](O)CC1=CC[C@@H]1C2CC[C@]2(C)c3n[nH]nc3CC12 (some centres not stated) > 100 µM

Provide only the value of recorded TGI for COc1nc(NC2OC(COC(C)=O)C(OC(C)=O)C(OC(C)=O)C2OC(C)=O)c2c(OC(C)=O)c(C)c(=O)oc2n1 (configuration not stated) > 100 µM

Provide only the value of recorded TGI for c1ccc(NNC2=NCCN2)cc1 > 100 µM

Provide only the value of recorded TGI for O=C1C=CC(=O)c2c1ccc1c3ccccc3n(CCCCCCCCn3c4ccccc4c4ccc5c(c43)C(=O)C=CC5=O)c21 > 100 µM

Provide only the value of recorded TGI for O=[N+]([O-])c1ccc(C2N3CCCCC3[C@H]3CCCCN23)cc1 (some centres not stated) > 100 µM

Provide only the value of recorded TGI for C=C1C(=O)O[C@@H]2O[C@@]3(C)CC[C@H]4[C@H](C)CC[C@@H]1[C@@]24O3 46.4 µM
